test: Selectivity index, ratio of IC50 for rat L6 cells to IC50 for Leishmania donovani MHOM/ET/67/L82; assay type: toxicity, cell-based; conditions: read-out: Ratio IC50
test_readout: selectivity ratio
Please respond with just the number, no unit label.

Please look up its selectivity ratio: "CCN(CC)c1ccc2nc3c4ccccc4/c(=N\c4cccc(OC)c4)cc-3oc2c1"
13.9

// lookup selectivity ratio for "CCN(CC)c1ccc2nc3c4ccccc4/c(=N\c4ccc([N+](=O)[O-])cc4Cl)cc-3oc2c1"
0.21

Which selectivity ratio value belongs to "CCN(CC)c1ccc2nc3c4ccccc4/c(=N\c4cccc(Cl)c4)cc-3oc2c1" ?
4.5

Please report the recorded selectivity ratio for "CCN(CC)c1ccc2nc3c4ccccc4/c(=N\c4ccc(C)cc4)cc-3oc2c1" .
12.5

What value of selectivity ratio has been reported for the following compound? "CCN(CC)c1ccc2nc3c4ccccc4/c(=N\c4ccc([N+](=O)[O-])cc4C#N)cc-3oc2c1"
0.68

What value of selectivity ratio has been recorded for this entry: "CCN(CC)c1ccc2nc3c4ccccc4/c(=N\c4ccccc4)cc-3oc2c1"
8.94

Looking for the measured selectivity ratio of "CCN(CC)c1ccc2nc3c4ccccc4/c(=N\c4ccccc4Cl)cc-3oc2c1" , can you help?
2.41

Look at this compound and give its reported selectivity ratio. "CCN(CC)c1ccc2nc3c4ccccc4/c(=N\c4ccc(OC)cc4)cc-3oc2c1"
10.9

* * *

test: Selectivity index, ratio of IC50 for rat L6 cells to IC50 for Trypanosoma brucei rhodesiense STIB900; assay type: toxicity, cell-based; conditions: read-out: Ratio IC50
Answer each item with its documented selectivity ratio.
# output: bare number, no unit

Consider the molecule "CCN(CC)c1ccc2nc3c4ccccc4/c(=N\c4ccccc4)cc-3oc2c1" and give its measured selectivity ratio.
2.03

I am curious: what selectivity ratio value has been reported for "CCN(CC)c1ccc2nc3c4ccccc4/c(=N\c4ccc([N+](=O)[O-])cc4)cc-3oc2c1" ?
0.26

Dear colleague, I am looking for the recorded selectivity ratio of the following molecule: "CCN(CC)c1ccc2nc3c4ccccc4/c(=N\c4ccccc4Cl)cc-3oc2c1"
0.66

What measured selectivity ratio goes with "CCN(CC)c1ccc2nc3c4ccccc4/c(=N\c4cccc(Cl)c4)cc-3oc2c1" ?
1

* * *

Can you tell me IC50 for the items I'm about to list?
test system: Trypanosoma cruzi; assay: Antiprotozoal activity against Trypanosoma cruzi Tulahuen C4 at pH 7.4 by microplate assay; format: functional, organism-based
Response body: numeric value in µM, unit text excluded.

Record request: IC50 value, item "CCN(CC)c1ccc2nc3c4ccccc4/c(=N\c4ccc(C)cc4)cc-3oc2c1"
20.9

Requested read-out: IC50. Entry: "CCN(CC)c1ccc2nc3c4ccccc4/c(=N\c4ccc(OC)cc4)cc-3oc2c1"
20.3

Please report the recorded IC50 for "CCN(CC)c1ccc2nc3c4ccccc4/c(=N\c4cccc(Cl)c4)cc-3oc2c1" .
76.7

For "CCN(CC)c1ccc2nc3c4ccccc4/c(=N\c4ccc([N+](=O)[O-])cc4C#N)cc-3oc2c1" , what is its reported IC50?
144

# query: IC50 of entry "CCN(CC)c1ccc2nc3c4ccccc4/c(=N\c4ccccc4Cl)cc-3oc2c1"
78.8

If you can, please state the reported IC50 value of "O=C(Cn1ccnc1[N+](=O)[O-])NCc1ccccc1" .
0.886

Suppose we examine the compound "CCN(CC)c1ccc2nc3c4ccccc4/c(=N\c4ccc([N+](=O)[O-])cc4)cc-3oc2c1" ; what IC50 value has been reported?
56.9

Entry "CCN(CC)c1ccc2nc3c4ccccc4/c(=N\c4cccc(OC)c4)cc-3oc2c1" has what IC50?
143

Request the reported IC50 associated with "CCN(CC)c1ccc2nc3c4ccccc4/c(=N\c4ccc([N+](=O)[O-])cc4Cl)cc-3oc2c1"
10.9
